# Tested on: KB
# protocolNotes: Cytotoxicity against human KB cells
# Format: functional, cell-based
# conditionDetails: Homo sapiens
endpoint: MIC (µg/mL)
Only the number, expressed in µg/mL, is required.

Reference set, count: 5
[[record]]
compound = "CC(CCCC/C=C/CC/C=C\\c1ccccc1)C[C@]1(C)C[C@@](C)(CC(=O)O)OO1 (stereo partly drawn)"
targetundertest = "KB"
endpoint = "MIC"
number = 0.01

[[record]]
compound = "COC(=O)C[C@]1(C)C[C@@](C)(CC(C)CC/C=C/CC/C=C/c2ccccc2)OO1 (stereo partly drawn)"
targetundertest = "KB"
endpoint = "MIC"
number = 1

[[record]]
compound = "CC(CCCC/C=C/CC/C=C\\c1ccccc1)C[C@]1(C)C[C@](C)(CC(=O)O)OO1 (stereo partly drawn) [EPIPLAKINIC ACID C]"
targetundertest = "KB"
endpoint = "MIC"
number = 0.01

[[record]]
compound = "COC(=O)C[C@@]1(C)C[C@@](C)(CC(C)CCCC/C=C/CC/C=C\\c2ccccc2)OO1 (stereo partly drawn)"
targetundertest = "KB"
endpoint = "MIC"
number = 0.1

[[record]]
compound = "CC(CC/C=C/CC/C=C/c1ccccc1)C[C@@]1(C)C[C@@](C)(CC(=O)O)OO1 (stereo partly drawn) [EPIPLAKINIC ACID D]"
targetundertest = "KB"
endpoint = "MIC"
number = 0.1


Exercise: # lookup: MIC of COC(=O)C[C@]1(C)C[C@@](C)(CC(C)CCCC/C=C/CC/C=C\c2ccccc2)OO1 (stereo partly drawn)
Key: 1

Exercise: # lookup: MIC of COC(=O)C[C@@]1(C)C[C@@](C)(CC(C)CC/C=C/CC/C=C/c2ccccc2)OO1 (stereo partly drawn)
Key: 0.1

Exercise: # lookup: MIC of CC(CC/C=C/CC/C=C/c1ccccc1)C[C@]1(C)C[C@@](C)(CC(=O)O)OO1 (stereo partly drawn)
Key: 0.001
